Form field: IC50 (one value per entry).
system: spindle assembly checkpoint; assay: SAC-Formation - Nocodazole-Induced Assay; assay type: cell-based; settings: Homo sapiens; HeLa cells, nocodazole 0.1 μg/ml, 24 h, phosphorylated histone H3 on serine 10

query: Need IC50 of CCc1ccccc1NC(=O)c1c(C)nsc1Nc1ncccc1OC , thanks.
result: > 20 µM

query: Need IC50 of CCc1ccccc1NC(=O)c1c(C)nsc1Nc1nc(C)cc(C)n1 , thanks.
result: > 20 µM

query: Need IC50 of COc1ccnc(Nc2snc(C)c2C(=O)Nc2ccc(F)c(F)c2)c1 , thanks.
result: > 20 µM

====

tested on: HeLa; experiment: Proliferation assay (crystal violet), HeLa; assay type: cell-based; conditions: Homo sapiens, 96 h, 4 days, read-out: Inhibition of proliferation IC50 HeLa
IC50 vs 1000 nM: less than gives yes (1); not less than gives no (0).

These solved cases illustrate the format of a correct answer.
>  <smiles string>
Cc1nsc(Nc2cncc(N(C)C)n2)c1C(=O)Nc1ccc(F)c(F)c1

>  <class assignment>
no (0)

$$$$
>  <smiles string>
Cc1nsc(Nc2cnc3ccccc3n2)c1C(=O)Nc1ccc(OC(C)C)nc1

>  <class assignment>
no (0)

$$$$
>  <smiles string>
Cc1nsc(Nc2cncc(C(F)(F)F)n2)c1C(=O)Nc1ccc(F)c(F)c1

>  <class assignment>
yes (1)

$$$$
>  <smiles string>
CCOc1ccc(NC(=O)c2c(C)nsc2Nc2cnc3ccccc3n2)cn1

>  <class assignment>
no (0)

$$$$
>  <smiles string>
CCc1ccccc1NC(=O)c1c(C)nsc1Nc1nc(C)nc2sccc12

>  <class assignment>
no (0)

$$$$
>  <smiles string>
CCOC(=O)c1sc(Nc2snc(C)c2C(=O)Nc2ccccc2CC)nc1C

>  <class assignment>
no (0)

$$$$

query: Confirm or reject: IC50 of CCc1ccccc1NC(=O)c1c(C)nsc1Nc1cnc2ccc(Cl)cc2n1 lies strictly below 1000 nM
result: no (0)

query: Confirm or reject: IC50 of CCNC(=O)c1cncc(Nc2snc(C)c2C(=O)Nc2ccc(F)c(F)c2)n1 lies strictly below 1000 nM
result: no (0)

query: Confirm or reject: IC50 of CCc1ccccc1NC(=O)c1c(C)nsc1Nc1ncnc2ccsc12 lies strictly below 1000 nM
result: no (0)
